Provenance of the data: patent US20030064915A1

biological target: HLA-DR2 molecules (Homo sapiens, UniProt P01903+P01911); construct: Soluble HLA-DR2 molecules were expressed in Drosophila S2 cells and purified as described; made in house; host or cells: Drosophila S2 cells; assay: Competitive binding assay: inhibition of biotinylated Cop 1 binding to HLA-DR2 molecules; conditions: biotinylated Cop 1 1.5 μM, recombinant HLA-DR2, one out of two independent experiments; read-out: IC50 (μM) vs. biotinylated: Cop 1
property: IC50

# test_smiles, IC50
rows = [
    ("C[C@H](N)C(=O)N[C@@H](CCCCN)C(=O)N[C@@H](CCC(=O)O)C(=O)N[C@@H](C)C(=O)N[C@@H](Cc1ccc(O)cc1)C(=O)N[C@@H](C)C(=O)N[C@@H](C)C(=O)N[C@@H](C)C(=O)N[C@@H](C)C(=O)N[C@@H](C)C(=O)N[C@@H](C)C(=O)N[C@@H](C)C(=O)N[C@@H](C)C(=O)N[C@@H](C)C(=O)N[C@@H](C)C(=O)O", "> 1000 µM"),
    ("C[C@H](N)C(=O)N[C@@H](CCC(=O)O)C(=O)N[C@@H](CCCCN)C(=O)N[C@@H](C)C(=O)N[C@@H](Cc1ccc(O)cc1)C(=O)N[C@@H](C)C(=O)N[C@@H](C)C(=O)N[C@@H](C)C(=O)N[C@@H](C)C(=O)N[C@@H](C)C(=O)N[C@@H](C)C(=O)N[C@@H](C)C(=O)N[C@@H](C)C(=O)N[C@@H](C)C(=O)N[C@@H](C)C(=O)O", "> 1000 µM"),
]

Now examine the next entry.
In: Consider the compound C[C@H](NC(=O)[C@H](C)NC(=O)[C@H](C)NC(=O)[C@H](C)NC(=O)[C@H](C)NC(=O)[C@H](C)NC(=O)[C@H](C)NC(=O)[C@H](C)NC(=O)[C@H](C)NC(=O)[C@H](C)NC(=O)[C@H](Cc1ccc(O)cc1)NC(=O)[C@H](C)NC(=O)[C@H](C)NC(=O)[C@H](CCCCN)NC(=O)[C@@H](N)CCC(=O)O)C(=O)O . State its measured IC50.
Out: > 1000 µM
